Dear all, this message contains IC50 results, target or system DGKζ (Homo sapiens (Human)).
Measure: IC50 (nM)

I. CC[C@H]1CN(C(C)c2ccc(C(=O)N3CCC(OC)C3)cc2)[C@H](CC)CN1c1cc(=O)n(C)c2cn(CC#N)nc12 (stereo partly drawn) [Compound A202]
II. CC[C@H]1CN(C(C)c2cc(F)c(C(=O)N(C)C)c(F)c2)[C@H](CC)CN1c1cc(=O)n(C)c2cn(CC#N)nc12 (single isomer, unassigned) [Compound A3a]
III. CC[C@H]1CN(C(C)c2ccc(OC)c(C)n2)[C@H](CC)CN1c1cc(=O)n(C)c2cn(CC#N)nc12 (stereo partly drawn) [Compound A55]
IV. CC[C@H]1CN(C(C)c2ccc3nccn3c2)[C@H](CC)CN1c1cc(=O)n(C)c2cn(CC#N)nc12 (single isomer, unassigned) [Compound A82b]
V. CC[C@H]1CN(C(C)c2ccn3nc(Cl)cc3n2)[C@H](CC)CN1c1cc(=O)n(C)c2cn(CC#N)nc12 (stereo partly drawn) [Compound A175]
Request: Order the entries above by descending IC50. Put the labels in the requested order and list them out.
Response: IV, I, III, II, V
(IV: 8520 nM, I: 3210 nM, III: 653 nM, II: 227 nM, V: 79 nM)

----------
# Test system: DGKζ (Homo sapiens (Human))
# Sequence (Q13574 other isoform, or with tags, fused parts or gaps): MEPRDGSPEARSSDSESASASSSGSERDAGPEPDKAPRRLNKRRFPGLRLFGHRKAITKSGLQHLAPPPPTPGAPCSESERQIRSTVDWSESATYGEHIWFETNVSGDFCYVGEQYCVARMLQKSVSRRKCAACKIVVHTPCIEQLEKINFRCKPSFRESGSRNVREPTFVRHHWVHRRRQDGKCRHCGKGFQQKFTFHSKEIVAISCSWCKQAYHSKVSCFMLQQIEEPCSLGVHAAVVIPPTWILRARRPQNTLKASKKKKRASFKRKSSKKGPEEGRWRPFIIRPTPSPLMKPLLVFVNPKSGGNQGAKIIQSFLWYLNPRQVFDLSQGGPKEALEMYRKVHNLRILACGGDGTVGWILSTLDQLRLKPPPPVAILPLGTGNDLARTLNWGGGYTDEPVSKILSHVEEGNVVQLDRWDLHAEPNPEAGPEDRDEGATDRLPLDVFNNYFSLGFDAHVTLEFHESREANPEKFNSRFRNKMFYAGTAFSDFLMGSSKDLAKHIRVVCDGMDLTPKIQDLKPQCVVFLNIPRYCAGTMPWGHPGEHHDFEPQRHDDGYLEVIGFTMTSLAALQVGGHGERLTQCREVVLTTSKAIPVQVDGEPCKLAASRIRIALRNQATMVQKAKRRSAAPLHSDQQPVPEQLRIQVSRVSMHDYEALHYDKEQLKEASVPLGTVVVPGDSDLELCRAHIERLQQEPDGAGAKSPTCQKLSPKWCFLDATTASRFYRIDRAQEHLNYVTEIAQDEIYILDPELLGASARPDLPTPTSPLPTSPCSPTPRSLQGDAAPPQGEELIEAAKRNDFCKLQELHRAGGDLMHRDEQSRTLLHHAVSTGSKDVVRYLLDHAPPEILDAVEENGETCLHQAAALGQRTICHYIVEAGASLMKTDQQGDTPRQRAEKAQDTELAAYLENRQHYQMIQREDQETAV
pIC50: −log10 of the molar value.
Measure: pIC50

Solved cases (2 shown):
Compound: CC#CCn1cc2c(n1)c(N1C[C@@H](CC)N(C(C)c3ccc4ncsc4c3)C[C@@H]1C)cc(=O)n2C (single isomer, unassigned) [Compound A112a]
Value observed: 7.11
--
Compound: CCC(c1ccn2nc(C)cc2n1)N1C[C@H](C)N(c2cc(=O)n(C)c3cn(CC#N)nc23)C[C@H]1CC (single isomer, unassigned) [Compound A171a]
Value observed: 6.94

1. CC[C@H]1CN(C(C)c2ccc(C(C)(C)F)nc2)[C@H](CC)CN1c1cc(=O)n(C)c2cn(CC#N)nc12 (single isomer, unassigned) [Compound A46a]
2. CC[C@H]1CN(C(C)c2ccc(OC(C)C)cn2)[C@H](CC)CN1c1cc(=O)n(C)c2cn(CC#N)nc12 (single isomer, unassigned) [Compound A51b]
3. CC[C@H]1CN(C(C)c2ccc(OC)cc2)[C@H](CC)CN1c1cc(=O)n(C)c2cn(CC#N)nc12 (single isomer, unassigned) [Compound A34b]
Request: Sort these compounds on pIC50 so the largest reading comes first. Put the labels in the requested order and list them out.
Response: 1, 2, 3

----------
# Test system: DGKζ (Homo sapiens (Human))
pIC50: −log10 of the molar value.
Measure: pIC50

Molecule: CC[C@H]1CN(C(C)c2ccc3cncn3c2)[C@H](CC)CN1c1cc(=O)n(C)c2cn(CC#N)nc12 (single isomer, unassigned) [Compound A83b]
Value observed: 5.74

1. CC[C@H]1CN(C(C)c2ccc(C)c(COC)n2)[C@H](CC)CN1c1cc(=O)n(C)c2cn(CC#N)nc12 (stereo partly drawn) [Compound A56]
2. CC[C@H]1CN(C(C)c2cc(F)c3ncsc3c2)[C@H](CC)CN1c1cc(=O)n(C)c2cn(CC#N)nc12 (single isomer, unassigned) [Compound A101a]
3. CC[C@H]1CN(C(C)c2ccc(CN3CCC(OC)CC3)cc2)[C@H](CC)CN1c1cc(=O)n(C)c2cn(CC#N)nc12 (single isomer, unassigned) [Compound A189b]
Request: Sort these molecules on pIC50 so the largest reading comes first. Put the labels in the requested order and list them out.
Response: 2, 1, 3
(2: 7.72, 1: 6.57, 3: 5.07)

P. CC#CCn1cc2c(n1)c(N1C[C@@H](CC)N(C(C)c3ccc4nc(C)sc4c3F)C[C@@H]1CC)cc(=O)n2C (single isomer, unassigned) [Compound A138a]
Q. [2H]C([2H])([2H])n1c(=O)cc(N2C[C@@H](CC)N(C(C)c3ccc4nc(C)sc4n3)C[C@@H]2CC)c2nn(CC#N)cc21 (single isomer, unassigned) [Compound A134b]
Request: Would you let me know which has the greater pIC50 value, P or Q ? Reply with the label of the item you choose.
Response: Q
(Q: 7.66, P: 6.84)

This collection of values is drawn from patent US20250346597A1.
